B1: NFE2L1 (parent)
chain: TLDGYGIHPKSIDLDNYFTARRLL

variants of: B1; experiment: protein stability index of a GFP-peptide fusion (GPS, HEK-293T) (PSI 1-6); higher = more stable; conditions: c terminus: a fixed tail appended;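 further: lentivirally expressed fusions sorted by FACS into six bins by GFP to DsRed ratio, PSI derived from sequencing read proportions per bin multiplied by bin number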
// FALSE strictly below 2 in protein stability index; TRUE otherwise

Here's what some known entries look like.
INSERT INTO results (variant_descriptor, qualitative_label) VALUES
  ('H8C', 'FALSE'),
  ('Y5Q', 'FALSE'),
  ('R21L', 'FALSE'),
  ('S11M', 'FALSE'),
  ('Y5M', 'TRUE'),
  ('N16V', 'TRUE'),
  ('Y17V', 'TRUE'),
  ('S11E', 'TRUE'),
  ('R21V', 'TRUE'),
  ('L23W', 'FALSE');

Hi team, for "T19N" , is the recorded protein stability index at or above 2?
TRUE

Hi team, for "T19L" , is the recorded protein stability index at or above 2?
FALSE

Textbook exercise: given the entry "F18I" , state whether its protein stability index is greater than or equal to 2.
FALSE

Test whether the variant "F18R" records protein stability index of 2 or higher.
TRUE

Is it the case that "D3H" has protein stability index reaching or exceeding 2?
FALSE

Record "N16H" ; criterion: protein stability index no lower than 2. Met?
FALSE

Could you please find out whether "H8V" has protein stability index that meets 2 or exceeds it?
TRUE

Reported protein stability index at or above 2? "R22I"
TRUE

Hello, the source for this data is the supplement of paper PMC10567573, in case you need it.
